The measurements presented in this section are drawn from the RNAGym collection of RNA variant scans (doi:10.1101/gr.219683.116).

exon inclusion enrichment index values for the variants below.
B1: mRNA-splicing (parent)
chain: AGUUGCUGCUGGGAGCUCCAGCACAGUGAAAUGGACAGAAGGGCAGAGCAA

variants of: B1; experiment: exon inclusion enrichment index; higher = more inclusion; WT1 exon 5 minigene, HEK293
Field format: numeric only.

{"mutation": "C6U C9A U10A", "exon inclusion enrichment index": 0.198}
{"mutation": "G5A C6U U7A G8U C9A C19U A20G", "exon inclusion enrichment index": 0.00852}
{"mutation": "G5C C6U G8C C9U U10C G42A", "exon inclusion enrichment index": 3.34}
{"mutation": "G5A C6U U7A G8U C9A A30G", "exon inclusion enrichment index": 0.0451}
{"mutation": "U27C G28A", "exon inclusion enrichment index": 0.0654}

// sample C6A U7A C9A U10A C18G C19G , its exon inclusion enrichment index was 0.718

Field exon inclusion enrichment index (entry G5C C6U G8C C9U U10C C19A A20G ) reads 0.213

Lab note: measured exon inclusion enrichment index of G5A C6U U7A G8U C9A A40U was 0.0441

So, C6A U7C C9A U10C G48C ? Its exon inclusion enrichment index was 2.99

Data point: C6A U7A C9A U10A U17G C18U ; exon inclusion enrichment index = 0.46

Recorded result, G5C C6U G8C C9U U10C C22G A23G , exon inclusion enrichment index: 0.846

Lab note: measured exon inclusion enrichment index of G5A C6G U7G C9A A37C G38U was 0.000751

The variant listed as G5A C6U U7A G8U C9A U17G C18A has a reported exon inclusion enrichment index of 0.0489

For C6A U7C C9A U10C C18G the variant record lists exon inclusion enrichment index as 3.06
